System: TK-10 renal
Assay: NCI-60 one-dose screen, 48 h
Settings: 10 µM
Compounds without any hit were thinned out: in the full panel of roughly 83,000, 20% have a hit. Activity calls are given as the source filed them. The calls were made as follows: active = growth percent below 10; inactive = the rest.
Outcome codes: T = active, F = inactive

                                    compound  label_class
 0  CC(=O)c1ccc(NC(=O)NCn2c(=O)[nH]c3ccccc3c2=O)cc1            F
 1  CCCn1c(O)c(N=Nc2nc(-c3cc4ccccc4oc3=O)cs2)c2cc(Br)ccc21            F
 2  O=C(c1ccc(O)cc1)C1[C@H](c2ccccc2Br)[C@@H](c2ccccc2)NC12C(=O)Nc1ccc(Cl)cc12 (stereo not given in full)            T
 3  Cc1ccc2nc(-c3ccc(-c4nnc(SCC(=O)Nc5ccc(Br)cc5)o4)cc3)[nH]c2c1            F
 4  Cc1ccc(/C=C/C(=O)c2ccc(S(=O)(=O)NCCNc3nc(Nc4ccc(F)cc4)nc(N(C)C)n3)cc2)cc1            F
 5          Cc1cc2nc3c4ccccc4n(CCO)c3nc2cc1C            F
 6  CN1CCc2c(sc3ncnc(N/N=C/c4ccc5ccccc5c4)c23)C1            F
 7  C=C[C@@]12CN3CC[C@]1(O)[C@@](C(=O)OC)(CO2)c1[nH]c2ccccc2c1C3            F
 8  CN1CCN(c2ccc(C(=O)/C=C/c3cc(Br)ccc3F)cc2)CC1            F
 9  COc1cnc2c(c1)C(=O)c1c-2n(CCCNCCO)c(=O)c2cc(OC)c(OC)cc12            F
10  CCCSc1nc(NC2CC2)c(C#N)c(-c2ccc(OC)cc2)n1            F
11  OCCCNc1oc(-c2ccccc2)nc1[P+](c1ccccc1)(c1ccccc1)c1ccccc1            F
12  COc1cc(-c2nc3cc(Cl)c(Cl)cc3[nH]2)ccc1OCc1nnc(-c2ccc(Br)cc2)o1            T
13  O=c1nc(-c2ccccc2)cc(-c2cc3ccccc3nc2Cl)[nH]1            F
14  CO[C@@H]1CSS[C@H]1Cn1nc(-c2ccc(Oc3ccccc3)cc2)c2c(N)ncnc21            F
15  COc1ccc(C(=O)Nc2sc3c(c2C#N)CCC(=O)C3)cc1C(F)(F)F            F
16  CN1C(=O)N(C)C2SC(N/N=C/C=C/c3ccccc3)=NC21 (stereo not given)            F
17  O=C(Cn1cc(CSc2nnc3oc4ccccc4n23)nn1)Nc1cccc(Cl)c1            F
18  O=C(O)CCCCCCCCCCN1C(=O)/C(=C/c2cnc(-c3ccccc3)s2)SC1=S            F
19  N#Cc1c(Cl)nc(SCc2ccc(F)cc2)nc1-c1ccc(F)cc1            F

====

Test system: TK-10 renal
Test: NCI-60 one-dose screen, 48 h (100 = growth as untreated, 0 = no growth, -100 = all killed)
Conditions: 10 µM
About 83,000 compounds went through this panel and 20% of them were active in at least one assay; those are over-represented in the sample as a whole.
QUANTITY_NAME: growth (%)

MOLECULE	DATA_VALUE
COc1ccc(N(C)c2cc(C#N)nc3ccccc23)cc1/C=C/C(=O)NO	23.7
C=C[C@H]1[C@H](O[C@@H]2OC(CO)[C@@H](O)[C@H](O)C2OC(=O)c2c(O)cc(O)cc2-c2cccc(O)c2)OC=C2C(=O)OCC[C@H]21 (some centres undefined)	102
CC1=C2C(=C[C@@](C)(COCOCCCl)[C@@H]2O)C(=O)[C@](C)(O)C12CC2	-1.02
CCCCCc1ccc(S(=O)(=O)Nc2cc(-c3csc(N(C)C(C)=O)n3)ccc2N2CCN(C)CC2)cc1	47.3
COc1ccccc1C(=O)NNC(=O)CSc1nc2c(c(=O)[nH]1)CCCC2	132
O=C(Nc1ccc(Cl)c(C(F)(F)F)c1)c1cncc(C#Cc2cnc3ccc(N4CCOCC4)nn23)c1	23.8
O=C1Nc2ccc(Cl)cc2/C1=C/c1ccc(OCc2ccc(Br)cc2F)cc1	18.6
O=C1c2ccccc2C(=O)c2c1c(C(=O)c1ccc(Cl)cc1)n1c2ccc2c3ccccc3ccc21	108
CCCn1c(=O)c2[nH]c(-c3ccc(OCc4nc5ccc(F)cc5[nH]4)cc3)nc2n(CCC)c1=O	-3.59
CC(=O)Nc1ccc(-c2cn(-c3cccc(C(=O)Nc4ccc(Cl)c(C(F)(F)F)c4)c3)nn2)cn1	-18
O=C(c1ccc(Cl)cc1)C1[C@H](c2ccc(Br)cc2)[C@@H](c2ccccc2)NC12C(=O)Nc1ccccc12 (some centres undefined)	14.5
O=C(Nc1nc2ccc([N+](=O)[O-])cc2s1)Nc1cc(Cl)ccc1I	-4.54
Cc1ccc(C(C)C)cc1NC(=O)c1ccccc1O	69.4
O=C(Cc1ccc2c(c1)CN(C1CCC(=O)NC1=O)C2=O)NCCc1ccccc1 (centres undefined)	45.8
CNCc1cccc2c1OCCCCCC[C@@](C)(O)CC1(CC1)S(=O)(=O)c1ccc(cc1)-c1cnc(N)c(n1)C(=O)N2	-92
CC(=O)c1ccc(Nc2nc(SCCC(C)C)nc(-c3ccc(F)cc3)c2C#N)cc1	6.32
O=C1NC(=NC2CCCCCC2)N/C1=C\c1ccc2ncoc2c1	43.8
COc1ccc(CN2[C@H](C(=O)NCc3ccc(C(=O)NO)cc3)Cc3c([nH]c4ccccc34)[C@H]2C2CC2)cc1	53.2
Cc1ccc(-c2cc(-c3cc4ccccc4nc3Cl)[nH]c(=O)n2)cc1	26.3
COc1ccc(C(=O)NC(=S)N2CCN(c3ncnc4c3cnn4-c3ccccc3)CC2)cc1	101
Cc1cc2c(c(O)c1Br)-c1ncoc1C(=O)[C@]1(C)CC[C@H](C(C)C)[C@H]21	68.8
CN(C)CCNC(=O)OCCCCOc1cc(O)c2c(=O)cc(-c3ccccc3)oc2c1	0.634
Cc1cc(C)nc(NS(=O)(=O)c2ccc(N/C(N)=N/c3nccc(-c4ccccc4)n3)cc2)n1	76.4
O=C(COc1ccc(NC(=O)Nc2ccc(Cl)cc2)cc1)N=Nc1c(O)[nH]c2ccc([N+](=O)[O-])cc12	101

====

System: SK-OV-3 ovarian
Assay: NCI-60 one-dose screen, 48 h (100 = growth as untreated, 0 = no growth, -100 = all killed)
Conditions: 10 µM
About 83,000 compounds went through this panel and 20% of them were active in at least one assay; those are over-represented in the sample as a whole.
Measured growth of individual entries

COMPOUND	SYSTEM_NAME	growth / %
O=C(CSc1nnc(-c2c[nH]c3ccccc23)n1-c1ccccc1)Nc1ccc(C(=O)/C=C/c2cccc([N+](=O)[O-])c2)cc1	SK-OV-3 ovarian	106
COc1cccc(/C=N/NC(=O)c2ccc3nc(-c4ccc(Cl)cc4)[nH]c3c2)c1O	SK-OV-3 ovarian	-84.6
CCCn1c(O)c(N=Nc2nc(-c3cc4ccccc4oc3=O)cs2)c2cc(Br)ccc21	SK-OV-3 ovarian	110
CCOC(=O)C1=C(N)N(c2ccc(C)cc2)C2=C(C(=O)CC(C)(C)C2)C1c1ccccc1OC (stereo not drawn)	SK-OV-3 ovarian	103
CC[C@]12C=CCN3CC[C@@]4(c5cc(C#CCNc6ccc(C)c(Nc7nccc(-c8cccnc8)n7)c6)c(OC)cc5N(C)[C@H]4[C@@](O)(C(=O)OC)[C@@H]1OC(C)=O)C32 (stereo partly drawn)	SK-OV-3 ovarian	110
N#Cc1ccc(-c2nn(-c3ccc(C(=O)O)cc3)cc2CNc2ccc(Cl)cc2)cc1	SK-OV-3 ovarian	123
O=C1NC(=NC23CC4CC(CC(C4)C2)C3)N/C1=C\c1ccc2ncsc2c1	SK-OV-3 ovarian	25.1
CN(CCF)c1ccc(/C=C/C(=O)c2ccc(N)cc2O)cc1	SK-OV-3 ovarian	105
CC(=O)NCC1=C(C)C=C2C(=O)[C@](C)(O)C3(CC3)C(C)=C21	SK-OV-3 ovarian	-58.5
O=C(c1ccc(O)cc1)C1[C@H](c2ccccc2Br)[C@@H](c2ccccc2)NC12C(=O)Nc1ccc(Br)cc12 (stereo partly drawn)	SK-OV-3 ovarian	65.2
CN1C(=O)N(C)C2SC(N/N=C/c3ccc(F)cc3)=NC21 (stereo not drawn)	SK-OV-3 ovarian	61.8
O=c1[nH][nH]c(Nc2ccccc2)c1N=Nc1ccc(F)cc1	SK-OV-3 ovarian	94.5
COc1cc2c3c(n(CCCN4CCOCC4)c(=O)c2cc1OC)-c1nc2c(cc1C3=O)OCO2	SK-OV-3 ovarian	-4.15
O=C(O)CCCCCCCCCCN1C(=O)/C(=C/c2cnc(-c3ccc(Cl)cc3)s2)SC1=S	SK-OV-3 ovarian	3.51
CC1(c2ccccc2)NC(=O)N(CC(=O)Nc2ccc(C(=O)/C=C/c3ccc(Cl)cc3)cc2)C1=O (stereo not drawn)	SK-OV-3 ovarian	66
Cc1ccc(-c2nc(Nc3ccccc3C(=O)O)c3ccccc3n2)cc1	SK-OV-3 ovarian	31.3
C=C[C@H]1[C@H](O[C@@H]2OC(CO)[C@@H](O)[C@H](O)C2OC(=O)c2c(O)cc(O)cc2-c2cccc(O)c2)OC=C2C(=O)OCC[C@H]21 (stereo partly drawn)	SK-OV-3 ovarian	95.7
O=C(Nc1ccccc1)Nc1nc2ccccc2s1	SK-OV-3 ovarian	78.4

Each recorded value in this set is attributed to PubChem BioAssay (NCI).
